B1: ZER1 (parent)
chain: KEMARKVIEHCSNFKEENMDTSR

# Variants of: B1
# test: protein stability index of a GFP-peptide fusion (GPS, HEK-293T) (PSI 1-6); higher = more stable;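 further: lentivirally expressed fusions sorted by FACS into six bins by GFP to DsRed ratio, PSI derived from sequencing read proportions per bin multiplied by bin number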
# conditionInfo: c terminus: native
The variants listed here are annotated with their protein stability index.
Please give only the number in your answer, with no unit.

[[record]]
mutationlist = "A4M"
quantitativereadout = 2.48

[[record]]
mutationlist = "H10G"
quantitativereadout = 4.56

[[record]]
mutationlist = "D20F"
quantitativereadout = 2.98

[[record]]
mutationlist = "S12E"
quantitativereadout = 3.85

[[record]]
mutationlist = "K15H"
quantitativereadout = 3.52


**Q:** Form field: reported protein stability index of S22W
**A:** 2.97

**Q:** Form field: reported protein stability index of M19K
**A:** 2.81

**Q:** Form field: reported protein stability index of R23F
**A:** 4.69
